biological target: SULT1A3 (Homo sapiens, UniProt P0DMM9); assay: SULT1A3 inhibition studies, 1-HP initial-rate fluorescence assay; type: biochemical; parameters: Wild-type and mutant SULT1A3 coding regions were inserted into a pGEX-6P expression vector; N-His/GST/MBP triple-tag (N, cleaved yes); made in house; host or cells: E. coli BL21(DE3); dose or concentration left out as unconfirmed; conditions: parentheses one standard error; read-out: SULT1A3 Enzyme Inhibition at Saturation/%
Sequence (P0DMM9 whole entry): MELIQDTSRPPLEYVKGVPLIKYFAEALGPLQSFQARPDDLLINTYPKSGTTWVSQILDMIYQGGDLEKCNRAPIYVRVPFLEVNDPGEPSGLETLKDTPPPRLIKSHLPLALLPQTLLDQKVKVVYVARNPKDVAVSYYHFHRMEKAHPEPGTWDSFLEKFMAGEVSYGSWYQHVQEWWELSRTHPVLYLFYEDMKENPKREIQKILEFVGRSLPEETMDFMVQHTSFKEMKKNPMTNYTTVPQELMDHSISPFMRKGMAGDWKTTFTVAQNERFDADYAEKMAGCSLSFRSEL
Measured endpoint: inhibition (%)

Example compounds with recorded inhibition:
CC(C)Cc1ccc2cc(/C=C/C(N)=O)cnc2n1 ... 96
COCc1ccc2nc(CC(C)C)ccc2c1 ... 10
O=C(O)/C=C/c1ccc2ncccc2c1 [Compound 10, (E)-3-(quinolin-6-yl)acrylic acid] ... 72
CC(C)Cc1ccc2cc(C(N)=O)ccc2n1 [Compound 11, 2-Isobutylquinoline-6-carboxamide] ... 78

(I) CC1CC(=O)c2cc3cc(C(N)=O)ccc3nc2C1 (stereo not drawn)
(II) CCCn1cc(-c2ccc3ncccc3c2)nn1
Query block: Lab notebook, comparison: I versus II , higher inhibition goes to which? # reply format: chosen label
Result block: I
(I: 75%, II: 33%)

---

target: SULT1A3 (Homo sapiens, UniProt P0DMM9); assay: SULT1A3 inhibition studies, 1-HP initial-rate fluorescence assay; format: biochemical; parameters: Wild-type and mutant SULT1A3 coding regions were inserted into a pGEX-6P expression vector; N-His/GST/MBP triple-tag (N, cleaved yes); made in house; host or cells: E. coli BL21(DE3); conditions: ND = inhibition was not detected at 30 μM compound; parentheses one standard error; read-out: SULT1A3 Ki/μM
Measured endpoint: Ki (µM)

Example compounds with recorded Ki:
CC1Cc2nc3ccc(C(N)=O)cc3cc2C(O)C1 (centres unmarked) ... 0.085
CCCn1cc(-c2ccc3ccc(O)cc3c2)nn1 ... 2.6
CC(C)Cc1ccc2cc(CCC(N)=O)ccc2n1 ... 0.069
CC1CC(=O)c2cc3cc(C(N)=O)ccc3nc2C1 (centres unmarked) ... 0.11

(A) CCCn1cc(-c2ccc3ncccc3c2)nn1
(B) COCc1ccc2nc(CC(C)C)ccc2c1
Query block: Lab notebook, comparison: A versus B , higher Ki goes to which? # reply format: chosen label
Result block: B

(A) CC(C)Cc1ccc2cc(/C=C/C(=O)O)cnc2n1
(B) CCCCNC(=O)c1ccc2nc(CC(C)C)ccc2c1
(C) CC(C)Cc1ccc2cc(/C=C/C(N)=O)cnc2n1
Query block: Arrange items by their Ki values in increasing order. In plain terms: list the labels in the order you were asked to.
Result block: C, B, A

---

target: SULT1A1 (Homo sapiens, UniProt P50225); assay: SULT1A1 inhibition, 1-HP initial-rate assay; type: biochemical; conditions: ND = inhibition was not detected at 30 μM compound; parentheses one standard error
Sequence (P50225 whole entry): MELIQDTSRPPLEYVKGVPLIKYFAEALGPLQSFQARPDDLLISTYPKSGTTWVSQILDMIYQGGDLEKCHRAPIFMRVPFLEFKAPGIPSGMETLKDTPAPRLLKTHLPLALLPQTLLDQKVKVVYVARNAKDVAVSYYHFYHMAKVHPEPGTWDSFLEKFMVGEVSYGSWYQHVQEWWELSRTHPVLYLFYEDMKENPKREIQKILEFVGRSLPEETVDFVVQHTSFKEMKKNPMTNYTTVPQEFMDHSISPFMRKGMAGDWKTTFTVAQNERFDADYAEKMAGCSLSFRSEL
Measured endpoint: Ki (µM)

Example compounds with recorded Ki:
CC(C)Cc1ccc2cc(/C=C/C(N)=O)cnc2n1 [Compound 23] ... 3.1
CC(C)Cc1ccc2cc(/C=C/C(N)=O)ccc2n1 [Compound 13] ... 6.2

(A) Cc1nc2ccc(CO)cc2cc1CC(C)C [Compound 4]
(B) CCCCNC(=O)c1ccc2nc(CC(C)C)ccc2c1 [Compound 7]
(C) O=C(O)/C=C/c1ccc2ncccc2c1 [Compound 10, (E)-3-(quinolin-6-yl)acrylic acid]
Query block: Arrange items by their Ki values in increasing order. In plain terms: list the labels in the order you were asked to.
Result block: B, A, C

(a) COCc1ccc2nc(CC(C)C)ccc2c1 [Compound 3, 2-Isobutyl-6-(methoxymethyl)quinolone]
(b) CC(C)(C)Cc1ccc2cc(CO)ccc2n1 [Compound 18]
Query block: Hey, between a and b which has a smaller measured Ki? # reply format: chosen label
Result block: b

# credit: patent US12291504B2
